Biological target: IMP-1 (Serratia marcescens)
Sequence (P52699 whole entry, looked up): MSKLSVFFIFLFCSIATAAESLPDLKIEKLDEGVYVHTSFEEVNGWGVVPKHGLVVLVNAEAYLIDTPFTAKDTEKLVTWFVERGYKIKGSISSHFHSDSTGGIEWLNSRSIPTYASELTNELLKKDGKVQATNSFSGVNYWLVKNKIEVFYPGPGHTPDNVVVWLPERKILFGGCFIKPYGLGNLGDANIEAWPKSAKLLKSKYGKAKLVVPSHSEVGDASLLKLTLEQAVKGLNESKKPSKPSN
Experiment: biochemical
Type: biochemical
Settings: IMP-1 enzyme, CCF2-FA substrate; read-out: IMP-1 IC50
property_label: pIC50
API: returns pIC50 as number; meaning -log10 of concentration in mol/L.

Solved cases below.
N[C@]1(c2ccc(-c3ccc(C(F)(F)F)c(S(N)(=O)=O)c3-c3nn[nH]n3)cc2)CCNC1; 8.04
NS(=O)(=O)c1c(CCCCCCO)ccc(CCCCCCO)c1-c1nn[nH]n1; 8.94
NS(=O)(=O)c1c(C(F)(F)F)ccc(-c2ccc(C3CCN(CC4CCCNC4)CC3)cc2)c1-c1nnn[nH]1 (stereo not drawn); 8.87
Nc1nc2c(-c3ccc(CC4CCC4)c(S(N)(=O)=O)c3-c3nn[nH]n3)cccc2s1; 8.16
NS(=O)(=O)c1c(C(F)(F)F)ccc(-c2cccc(N3CCC(O)CC3)c2)c1-c1nnn[nH]1; 8.21

Read the entry NC(=O)c1ccc(-c2ccc(C(F)(F)F)c(S(N)(=O)=O)c2-c2nn[nH]n2)cn1 and write its reported pIC50.
7.97

Consider the compound NS(=O)(=O)c1c(C(F)(F)F)ccc([C@H]2CC[C@H](NC3CC4(CCNCC4)C3)CC2)c1-c1nnn[nH]1 and give its recorded pIC50.
7.12

State its pIC50: NS(=O)(=O)c1c(C(F)(F)F)ccc(-c2cccc3c2CNC3=O)c1-c1nn[nH]n1
8.16

Report pIC50 for NS(=O)(=O)c1c(C(F)(F)F)ccc(N2CCC(CCO)CC2)c1-c1nnn[nH]1
9.02

Please report the measured pIC50 for NC[C@H]1CC[C@@H](Cc2ccc(-c3ccc(C4CCNC4)cc3)c(-c3nnn[nH]3)c2S(N)(=O)=O)CC1 (stereo partly drawn)
8.55

Input NS(=O)(=O)c1c(C(F)(F)F)ccc(-c2ccc(C3CCN(C[C@H]4CNCCO4)CC3)cc2)c1-c1nnn[nH]1 , output reported pIC50.
8.97

Assign pIC50 to the following record: NC1(CN2CCC(c3ccc(-c4ccc(C(F)(F)F)c(S(N)(=O)=O)c4-c4nnn[nH]4)cc3)CC2)CC1
8.60

Give recorded pIC50. NS(=O)(=O)c1c(C(F)(F)F)ccc(-c2ccc(C3CCN(C[C@@H]4CCCN4)CC3)cc2)c1-c1nnn[nH]1
9.16

Answer with reported pIC50 of Cc1cc(N)ncc1Cc1cccc(S(N)(=O)=O)c1-c1nn[nH]n1
6.18

Tell me measured pIC50 for Cn1c(-c2ccc(-c3ccc(C(F)(F)F)c(S(N)(=O)=O)c3-c3nnn[nH]3)cc2)cnc1N.O=C(O)C(F)(F)F please.
9.05
